- System: Hepatitis C virus
- Test summary: Antiviral activity against Hepatitis C virus infected in human Huh7.5 cells assessed as inhibition of viral replication incubated for 72 hrs by qRT-PCR analysis
- Assay type: functional, organism-based, Hepacivirus hominis
- Setup conditions: Huh7.5, 72 h
pEC50: −log10 of the molar value.
Label rule, in plain words: pEC50 of 6 and up is rule met, under 6 is rule not met.

CCC(=O)Nc1cc(C(=O)Nc2ccc(CN3CCN(C)CC3)c(C(F)(F)F)c2)ccc1OCCCCl
rule met
CCC(=O)Nc1cc(C(=O)Nn2c(C)nnc2S)ccc1OC
rule not met
CCC(=O)Nc1cc(C(=O)Nc2ccc(OC)cc2)ccc1OCCCCl
rule not met
CC(C)Oc1ccc(C(=O)Nc2ccc(N(C)C)cc2)cc1N
rule not met

input: Is the recorded value of pEC50 equal to or greater than 6 for this compound? `COc1ccc(NC(=O)c2ccc(OC(C)C)c([N+](=O)[O-])c2)cc1`
output: rule not met

input: Is the recorded value of pEC50 equal to or greater than 6 for this compound? CN(C)C1CCN(Cc2ccc(NC(=O)c3ccc(OCCCCl)c([N+](=O)[O-])c3)cc2C(F)(F)F)C1 (centres undefined)
output: rule met

input: Is the recorded value of pEC50 equal to or greater than 6 for this compound? COc1ccc2c(O[C@@H]3C[C@H]4C(=O)N[C@]5(C(=O)NS(=O)(=O)C6CC6)CC5/C=C\CCCCN(C)C(=O)[C@@H]4C3)cc(-c3nc(C(C)C)cs3)nc2c1C (single isomer, unassigned)
output: rule met

input: Is the recorded value of pEC50 equal to or greater than 6 for this compound? `CC1CCN(c2ccc(NC(=O)c3ccc(OCCCCl)c([N+](=O)[O-])c3)cn2)CC1`
output: rule met

input: Is the recorded value of pEC50 equal to or greater than 6 for this compound? `CN1CCN(Cc2ccc(NC(=O)c3ccc(OCCCCCl)c([N+](=O)[O-])c3)cc2C(F)(F)F)CC1`
output: rule met

input: Is the recorded value of pEC50 equal to or greater than 6 for this compound? `CCC(=O)Nc1cc(C(=O)Nc2ccc(N(C)C)cc2)ccc1OC`
output: rule not met

input: Is the recorded value of pEC50 equal to or greater than 6 for this compound? COc1ccc(C(=O)Nc2cc(OC)c(OC)c(OC)c2)cc1NC(=O)C(C)Br (centres undefined)
output: rule not met

input: Is the recorded value of pEC50 equal to or greater than 6 for this compound? `CCC(=O)Nc1cc(C(=O)Nc2ccc(N3CCN(C)CC3)cc2)ccc1OC`
output: rule not met

* * *

- Test summary: Selectivity index, ratio of CC50 for cytotoxicity against human Huh7.5 cells to EC50 for antiviral activity against Hepatitis C virus infected in human Huh7.5 cells
- Format: toxicity, cell-based
- Setup conditions: read-out: Ratio CC50/EC50
Value type: selectivity ratio
Please give the numeric answer without any surrounding text.

CCC(=O)Nc1cc(C(=O)Nc2ccc(CN3CCN(C)CC3)c(C(F)(F)F)c2)ccc1OC(C)C
51
COc1ccc(NC(=O)c2ccc3c(c2)NC(=O)CO3)cc1
10
CN1CCN(Cc2ccc(NC(=O)c3ccc(OCCCCl)c([N+](=O)[O-])c3)cn2)CC1
151
CCC(=O)Nc1cc(C(=O)Nc2ccc(N(C)C)cc2)ccc1OC(C)C
13
CN(C)C1CN(Cc2ccc(NC(=O)c3ccc(OCCCCl)c([N+](=O)[O-])c3)cc2C(F)(F)F)C1
371

input: Specify reported selectivity ratio for the compound shown: `COc1ccc(NC(=O)c2ccc(OCCCCl)c([N+](=O)[O-])c2)cc1`
output: 17

input: Specify reported selectivity ratio for the compound shown: `O=C(Nc1ccc(CN2CCOCC2)c(C(F)(F)F)c1)c1ccc(OCCCCl)c([N+](=O)[O-])c1`
output: 19.3

input: Specify reported selectivity ratio for the compound shown: `CN(C)C1CCN(Cc2ccc(NC(=O)c3ccc(OCCCCl)c([N+](=O)[O-])c3)cc2C(F)(F)F)CC1`
output: 14

* * *

- Test summary: Aqueous Solubility of compound at pH 7 measured after 10 mins by HPLC-UV analysis
- Format: physicochemical
- Setup conditions: buffer
Value type: solubility at 10 min
Could you kindly put the unit after your number?

input: Specify reported solubility at 10 min for the compound shown: `CN(C)C1CN(Cc2ccc(NC(=O)c3ccc(OCCCl)c([N+](=O)[O-])c3)cc2C(F)(F)F)C1.Cl`
output: 7800 µg/mL

* * *

- Target or test system: UniProt:Q9HC16
- Sequence (Q9HC16 whole entry): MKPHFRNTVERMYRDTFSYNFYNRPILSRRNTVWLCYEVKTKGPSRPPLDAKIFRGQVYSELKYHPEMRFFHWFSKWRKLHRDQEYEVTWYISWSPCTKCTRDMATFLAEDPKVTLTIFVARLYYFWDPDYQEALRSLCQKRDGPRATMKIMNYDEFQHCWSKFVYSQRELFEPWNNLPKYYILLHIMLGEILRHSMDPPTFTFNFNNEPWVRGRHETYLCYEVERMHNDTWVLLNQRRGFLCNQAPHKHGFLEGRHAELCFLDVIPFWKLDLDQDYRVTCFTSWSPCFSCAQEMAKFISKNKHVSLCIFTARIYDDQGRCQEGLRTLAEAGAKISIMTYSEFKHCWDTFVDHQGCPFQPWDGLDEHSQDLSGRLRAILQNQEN
- Test summary: Inhibition of Vif-mediated human A3G degradation in HEK-293T cells cotransfected with hA3G and Vif at 20 uM by western blot analysis relative to control
- Assay type: cell-based
Value type: inhibition

Consider the worked cases shown below.
CCC(=O)Nc1cc(C(=O)Nc2ccc(CN3CCN(C)CC3)c(C(F)(F)F)c2)ccc1OC
> 50%
COc1ccc(NC(=O)c2ccc(OCCCCl)c([N+](=O)[O-])c2)cc1
< 25%
CCC(=O)Nc1cc(C(=O)Nc2ccc(OC)cc2)ccc1OC
> 50%
CCOc1ccc(C(=O)Nc2ccc(OC)cc2)cc1NC(=O)CC
25%
CCC(=O)Nc1cc(C(=O)Nc2ccc(CN3CCN(C)CC3)cc2)ccc1OC
25%
CCC(=O)Nc1cc(C(=O)Nc2ccc(OC)cc2)ccc1OCCCN(C)C
> 50%

Here is the next item to consider.
input: # lookup: UniProt:Q9HC16 inhibition, key = `CCC(=O)Nc1cc(C(=O)Nc2ccc(N(C)C)cc2)ccc1OC`
output: < 25%

* * *

- Test system: Huh-7.5
- Test summary: Cytotoxicity against human Huh7.5 cells assessed as inhibition of cell growth measured after 96 hrs by MTT assay
- Type: toxicity, cell-based
- Setup conditions: huh-7.5, 96 h
Value type: CC50 (µM)
Your answer is read as µM, so omit the unit and give the number.

CC(C)Oc1ccc(C(=O)Nc2ccc(CN3CCN(C)CC3)c(C(F)(F)F)c2)cc1NC(=O)C(C)Br (stereo unspecified)
8.7
CCC(=O)Nc1cc(C(=O)Nc2ccc(N(C)C)cc2)ccc1OC(C)C
80.6
CCC(=O)Nc1cc(C(=O)Nc2ccc(OC)cc2)ccc1OCCCN1CCN(C)CC1
126
CCC(=O)Nc1cc(C(=O)Nc2ccc(OC)cc2)ccc1OCCCN(C)C
154
COc1ccc(C(=O)Nc2cc(OC)c(OC)c(OC)c2)cc1NC(=O)C(C)Br (stereo unspecified)
15

input: Specify reported CC50 for the molecule shown: CC(C)Oc1ccc(C(=O)Nc2ccc(N(C)C)cc2)cc1NC(=O)C(C)Br (stereo unspecified)
output: 7.9

input: Specify reported CC50 for the molecule shown: `COc1ccc(NC(=O)c2ccc(OCCCCl)c([N+](=O)[O-])c2)cc1`
output: 39.7

input: Specify reported CC50 for the molecule shown: `CC1CCN(c2ccc(NC(=O)c3ccc(OCCCCl)c([N+](=O)[O-])c3)cn2)CC1`
output: 9.2

input: Specify reported CC50 for the molecule shown: `CN1CCN(Cc2ccc(NC(=O)c3ccc(OCCCCCCl)c([N+](=O)[O-])c3)cc2C(F)(F)F)CC1`
output: 2.14

input: Specify reported CC50 for the molecule shown: `CN1CCN(Cc2ccc(NC(=O)c3ccc(OCCCCl)c(Cl)c3)cc2C(F)(F)F)CC1`
output: 4.1

input: Specify reported CC50 for the molecule shown: `COc1ccc(NC(=O)c2ccc(OC(C)C)c([N+](=O)[O-])c2)cc1`
output: 23.4

input: Specify reported CC50 for the molecule shown: `CCC(=O)Nc1cc(C(=O)Nc2ccc(OC)cc2)ccc1OCCCCl`
output: 158

input: Specify reported CC50 for the molecule shown: `CN1CCN(Cc2ccc(NC(=O)c3ccc(OCCCCl)c([N+](=O)[O-])c3)cc2C#N)CC1`
output: 15.5

input: Specify reported CC50 for the molecule shown: `CCC(=O)Nc1cc(C(=O)Nc2ccc(CN3CCN(C)CC3)c(C(F)(F)F)c2)ccc1OC`
output: 35.3

input: Specify reported CC50 for the molecule shown: `O=C(Nc1ccc(CN2CCOCC2)c(C(F)(F)F)c1)c1ccc(OCCCCl)c([N+](=O)[O-])c1`
output: 6.1

* * *

- Tested on: Hepatitis C virus
- Test summary: Antiviral activity against Hepatitis C virus infected in human Huh7.5 cells assessed as inhibition of viral replication incubated for 72 hrs by qRT-PCR analysis
- Assay type: functional, organism-based, Hepacivirus hominis
- Setup conditions: Huh7.5, 72 h
pEC50: −log10 of the molar value.
Label rule, in plain words: pEC50 of 6 and up is Fulfilled, under 6 is Not fulfilled.

# example entries with known answers
O=C(Nc1ccc(CN2CCOCC2)c(C(F)(F)F)c1)c1ccc(OCCCCl)c([N+](=O)[O-])c1
Fulfilled
CCCOc1ccc(C(=O)Nc2ccc(OC)cc2)cc1NC(=O)CC
Not fulfilled
CN1CCN(Cc2ccc(NC(=O)c3ccc(OCCCCl)c(C(F)(F)F)c3)cc2C(F)(F)F)CC1
Fulfilled
O=C(Nc1ccc(CN2CC(C(=O)O)C2)c(C(F)(F)F)c1)c1ccc(OCCCCl)c([N+](=O)[O-])c1
Not fulfilled
CN(C)C1CN(Cc2ccc(NC(=O)c3ccc(OCCCCl)c([N+](=O)[O-])c3)cc2C(F)(F)F)C1
Fulfilled

Consider now this further molecule.
input: Is the recorded value of pEC50 equal to or greater than 6 for this molecule? `CN1CCN(Cc2ccc(NC(=O)c3ccc(OCCCCl)c([N+](=O)[O-])c3)cc2C(F)(F)F)CC1`
output: Fulfilled
